Target or system ERBB2: recorded Kd listed per item.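 Note: kd values determined as follow-up on hits from a single-replicate KINOMEscan panel screen.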
Numbers only, in µM.

Example cases with answers are listed next.
CS(=O)(=O)CCNCc1nc(-c2ccc3ncnc(Nc4ccc5c(cnn5Cc5ccccc5)c4)c3c2)cs1.Cl.Cl [GW569716]
0.0011
Cn1cncc1-c1cc2c(Nc3ccc(OCc4ccccc4)cc3)ncnc2cn1 [GW281179]
0.017

Note: attention shifts to another entry.
Considering COc1cc2ncnc(Nc3cccc(Br)c3)c2cc1OC.Cl [GI230329] , its Kd with ERBB2 was recorded as 0.085

###

For each record, write down the corresponding %Inh.
system: NLK; conditions: concentration: 1 μM, replicates: in singlicate; n = 1;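 note: KINOMEscan kinase panel screen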
Numbers only, in %.

Answered cases to consult:
NS(=O)(=O)c1cccc(N/C=C2\C(=O)Nc3ccc(S(=O)(=O)Cc4c(Cl)cccc4Cl)cc32)c1 [GSK398099]
20
COc1ccc(Nc2nccc(-c3ccc(NC(=O)c4cc5cc(F)ccc5[nH]4)cc3)n2)cc1 [GSK1229496]
23
CSc1ccc(-c2nc3n(c2-c2ccncc2)CCC3)cc1 [SKF-105561]
23
Cc1ccccc1Cn1ccn2c(=O)cc(N3CCOCC3)nc12 [GSK2269905]
9

Below: the item to evaluate.
Measured %Inh, Cn1cncc1C(=O)NC1CCN(c2ccnc(Nc3ccc(F)cc3)n2)C1 (centres unmarked) [GSK1379717] : 13
